Please provide measured GI50 for the entries that follow.
Tested on: UACC-257
Assay: NCI tumour cell line growth inhibition, 48 h
Active and inactive are the calls of the source. No stated cut-off is given here; in the data, active = GI50 up to about 1.1 µM and inactive = higher.

Recall and state the measured GI50 for C[N+](C)(C)CC(=O)N/N=C(\C(=O)NC1=C(Cl)C(=O)c2ccccc2C1=O)C(C#N)c1nc(-c2ccc([N+](=O)[O-])cc2)cs1 (stereo not drawn) .
3.18 µM (inactive)

For the molecule COC1CC(COCc2ccccc2)CC(OC)O1 (stereo not drawn) , give its reported GI50.
> 100 µM (inactive)

Could you please provide reported GI50 for NC(CCc1ncc(-c2ccccc2)s1)C(=O)O (stereo not drawn) ? Thanks!
> 100 µM (inactive)

Identify measured GI50 associated with COC(=O)C(Cc1cn(C(C)=O)c2ccccc12)P(=O)(OC)OC (stereo not drawn)
> 100 µM (inactive)

Note GI50 for the molecule shown: O=C(CSCC(=O)N/N=C\c1ccc(F)cc1F)N/N=C\c1ccc(F)cc1F
> 100 µM (inactive)

For O=C(c1ccsc1)c1nccc2c1cnc1ccccc12 , write its GI50.
45.2 µM (inactive)

Identify GI50 associated with the molecule CC(=O)NC1C(OCc2ccccc2)OC(CO)C(O)C1OCC(=O)NC(C)C(=O)NC(CCC(=O)NCCCCCC(=O)Nc1ccc2c(c1)CN1C(=O)c3ccccc3C1=N2)C(N)=O (stereo not drawn)
> 100 µM (inactive)

State its GI50 for this molecule: CCN(CC)CCOCC1CCCN2CCCCC12 (stereo not drawn)
> 100 µM (inactive)

Give recorded GI50. Cn1c(=O)c2[nH]c(N/N=C3/SCC(=O)N3Cc3ccccc3)nc2n(C)c1=O
> 100 µM (inactive)

Indicate its recorded GI50; the molecule in question is COC(=O)c1ccc(/C=N/c2ccc(S(N)(=O)=O)cc2)cc1
14.2 µM (inactive)

Return GI50 (reported value) for this molecule: NC(CCC(=O)NC(CSC(=O)N(O)c1ccccc1)C(=O)NCC(=O)O)C(=O)O (stereo not drawn)
> 1000 µM (inactive)

# return recorded GI50 for entry Cc1cccc2c1CC(Cc1ccccc1C(=O)O)C2=O (stereo not drawn)
> 100 µM (inactive)

Look up and state reported GI50 for CN1C(=O)c2cccc3c([N+](=O)[O-])ccc(c23)C1=O
9.53 µM (inactive)

Let me know recorded GI50 for COc1ccc(/C=C/c2cc(OC)cc(=O)o2)cc1 [YANGONIN] , thanks.
> 100 µM (inactive)

Please look at this molecule and report its GI50: Nc1ncnc2c1ncn2C1OC(CSC(F)F)C(O)C1O (stereo not drawn)
> 100 µM (inactive)

Provide one value: measured GI50 of Cc1c(O)c(=O)ccn1CCN
> 100 µM (inactive)

Please indicate GI50 recorded for COc1ccc(/C(Cl)=C/c2cc(OC)ccc2OC)cc1
> 100 µM (inactive)

Tell me GI50 reported for Oc1cc(Br)cc2cc(Cl)cnc12
3.27 µM (inactive)

Note down GI50 recorded for O=C(O)COc1cc(-c2ccccc2)nc2ccc(F)cc12
> 100 µM (inactive)

Input Nc1ccc(C(=O)c2cn(CCN3CCOCC3)c3ccccc23)c2ccccc12 , output reported GI50.
45.6 µM (inactive)

For COC(=O)/C=C/c1ccc2nncnc2c1.COC(=O)/C=C\c1ccc2nncnc2c1 , write its GI50.
16.9 µM (inactive)

Return GI50 (reported value) for this molecule: CCOP(=O)(Cc1nc(C#N)c(N)o1)OCC
> 100 µM (inactive)

Given Cc1nc(-c2ccc(Cl)cc2)cn2c1nc1ccccc12 , respond with its GI50.
> 100 µM (inactive)

Provide measured GI50 value, entry: CCOC(=O)C(Cl)(Cl)/S(=N\S(=O)(=O)c1ccccc1)NC(=O)c1ccccc1 (stereo not drawn)
> 100 µM (inactive)

Please report GI50 for the following molecule: C[C@]12CC[C@@H]3c4ccc(OS(N)(=O)=O)cc4CC[C@H]3[C@@H]1CCC2=O [EMATE]
32.4 µM (inactive)

Please report the measured GI50 for COc1cc(C2c3cc4c(cc3[C@@H](NCCN3CCCCC3)C3COC(=O)[C@H]23)OCO4)cc(OC)c1O (stereo partly drawn)
2.78 µM (inactive)

Tell me GI50 reported for COC(=O)CNC(=O)CNC(=O)CSc1nnc(COc2ccc(Cl)cc2)n1-c1ccccc1
19.1 µM (inactive)

Specify GI50 for N#CC(C#N)=c1c2ccccc2c(=C(C#N)C#N)c2ccccc12 and stop.
23.1 µM (inactive)

Give the measured GI50 for O=C1OC2C(O)COC2(O)C1(O)C(C[N+](=O)[O-])c1ccc(Cl)cc1 (stereo not drawn)
6.68 µM (inactive)

Identify measured GI50 associated with COc1cc2c(cc1OC)C(=O)C(C1=C(SC(=N)N)C(=O)c3cc(OC)c(OC)cc31)C2 (stereo not drawn)
> 100 µM (inactive)

Query GI50 for COC(=O)C1(CCC(=O)N(C)c2ccccc2)NNC2C(=O)N(c3ccccc3)C(=O)C21 (stereo not drawn)
> 10 µM (inactive)

Retrieve GI50 measured for COc1ccccc1N1C(=O)CSC1c1cc(OC)c(OC)c(OC)c1 (stereo not drawn) and print it.
> 84.7 µM (inactive)

Annotate the molecule CCOC(=O)c1c[nH]c2c(ccc3ncccc32)c1=O with its measured GI50.
> 100 µM (inactive)

Annotate the molecule Cc1c2cc[n+](C)cc2c(C)c2c1[nH]c1ccc(Oc3ccccc3)cc12 with its measured GI50.
1.18 µM (inactive)

Write down GI50 measured for item COC(=O)c1cnn2c1ccc1ccccc12
> 100 µM (inactive)

Annotate the molecule O=C1OC(C2Cc3ccc4c(c3C2=O)CCCC4)c2ccccc21 (stereo not drawn) with its measured GI50.
52.2 µM (inactive)

Please indicate GI50 recorded for CCCOC(=O)C1CCC(=O)N1C(=O)C(C)Cl (stereo not drawn)
> 100 µM (inactive)

Given COc1ccc(NCc2cccc3c(=O)c4ccc(Cl)cc4oc23)cc1 , respond with its GI50.
> 100 µM (inactive)

Check the records and state GI50 for CC(C)(C)/C(O)=C\c1nc2cc(F)c(F)cc2[nH]c1=O
> 100 µM (inactive)

Give the measured GI50 for CC1=[N+]([O-])C2(CCCC2)N(O)C1(C)C
> 100 µM (inactive)

Answer with reported GI50 of CCN1CCN(c2nc3ccc([N+](=O)[O-])cc3nc2C(=O)c2ccccc2)CC1
20.1 µM (inactive)

Dear colleague, please send me the reported GI50 for COc1cc2c(c(O)c1OC)C(O)C1CCC(=O)N1C2c1cccc2ccccc12 (stereo not drawn) when you can.
> 100 µM (inactive)

Give recorded GI50. Cc1cn(C2CC(O)C(CO[Si](C)(C)C(C)(C)C)OC2OC(C)C)c(=O)[nH]c1=O (stereo not drawn)
34.6 µM (inactive)
